Tested on: Colletotrichum orbiculare
Protocol Notes: Fungicidal activity against Colletotrichum orbiculare in the microtiterplate test
Type: cell-based
Run Conditions: Colletotrichum orbiculare; 0.25 ppm; read-out: Observed efficacy
Each entry below carries its recorded inhibition of growth at […].
Measure: inhibition of growth at […]

Molecule	Observed Value
CC1COC(Cn2cncn2)(c2ccc(Oc3ccc(Cl)cc3)cc2Cl)O1 (stereo not drawn) [Difenoconazol, difenoconazole]	14%
CCC(=O)OCOc1c(OC)ccnc1C(=O)NC1COC(=O)[C@H](Cc2ccccc2)[C@@H](OC(=O)C(C)C)[C@H](C)OC1=O (stereo partly drawn) [A.2.5]	72%
CC(Cc1ccc(C(C)(C)C)cc1)CN1C[C@@H](C)O[C@@H](C)C1 (stereo partly drawn) [Fenpropimorph, fenpropimorph]	5%

Values compiled from patent US20210084902A1.
